- procedureText: Dynamic moisture sorption (DMS) analysis of crystalline forms
- Assay type: physicochemical
- condition: up to 90% RH
Counter-ions that a name gives are not always drawn.
reportedEndpoint: Hygroscopicity by DMS (in words)

Would you please look over these solved cases?
1) O=C(COC[C@H]1CC[C@H](COC(=O)N(c2ccccc2)c2ccc(Cl)cc2)CC1)NCCS(=O)(=O)O [Compound Ia TRIS salt]	slightly hygroscopic
2) N=C(N)NCCC[C@H](N)C(=O)O.O.O=C(COC[C@H]1CC[C@H](COC(=O)N(c2ccccc2)c2ccc(Cl)cc2)CC1)NCCS(=O)(=O)O [Compound Ia L-arginine salt hydrate]	slightly hygroscopic
3) O.O=C(COC[C@H]1CC[C@H](COC(=O)N(c2ccccc2)c2ccc(Cl)cc2)CC1)NCCS(=O)(=O)[O-].O=C(COC[C@H]1CC[C@H](COC(=O)N(c2ccccc2)c2ccc(Cl)cc2)CC1)NCCS(=O)(=O)[O-].[Ca+2] [Compound Ia calcium salt hydrate I]	hygroscopic
4) O.O=C(COC[C@H]1CC[C@H](COC(=O)N(c2ccccc2)c2ccc(Cl)cc2)CC1)NCCS(=O)(=O)[O-].[K+] [Compound Ia potassium salt hydrate]	slightly hygroscopic
5) O.O=C(COC[C@H]1CC[C@H](COC(=O)N(c2ccccc2)c2ccc(Cl)cc2)CC1)NCCS(=O)(=O)[O-].O=C(COC[C@H]1CC[C@H](COC(=O)N(c2ccccc2)c2ccc(Cl)cc2)CC1)NCCS(=O)(=O)[O-].[Mg+2] [Compound Ia magnesium salt hydrate]	slightly hygroscopic

Let us move to another entry and its Hygroscopicity by DMS (in words).
Need Hygroscopicity by DMS (in words), item O.O=C(COC[C@H]1CC[C@H](COC(=O)N(c2ccccc2)c2ccc(Cl)cc2)CC1)NCCS(=O)(=O)O [Compound Ia free acid hydrate]
hygroscopic
